ELISA OD values, listed per item
assay.target: T1, recombinant MS4A4A soluble polypeptide JS5
T1 construct: also called JS5.His
assay.explanation: ELISA, 0.33 ug/ml antibody
Hey, just send me the number, nothing else.

Consider the following illustrative entries.
anti-MS4A4A antibody 4A-302 (antibody, human IgG1, V domains shown, human IgG1/kappa) VH: QVQLVQSGAEVKKPGASVKVSCKASGYTFTNYWMQWVRQAPGQGLEWMGATHPGHGDTRYAQKFQGRVTMTRDTSTSTVYMELSSLRSEDTAVYYCAREEVYYGFRSYWYFDVWGRGTLVTVSS VL: EIVLTQSPATLSLSPGERATLSCRASESVDNYGVSFMNWYQQKPGQAPRLLIYGASNQGSGIPARFSGSGSGTDFTLTISSLEPEDFAVYYCQQSKEVPPTFGGGTKVEIK = 0.103
anti-MS4A4A antibody 4A-356 (antibody, V domains shown, full human IgG) VH: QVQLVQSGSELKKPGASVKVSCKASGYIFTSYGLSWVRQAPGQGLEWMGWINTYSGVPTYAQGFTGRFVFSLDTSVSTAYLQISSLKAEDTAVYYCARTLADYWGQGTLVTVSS VL: DVVMTQSPLSLPVTLGQPASISCKSSRSLLYSQGKTYLSWFQQRPGQSPRRLIYLVSKLDSGVPDRFSGSGSGTDFTLKISRVEAEDVGVYYCWQGIDFHQTFGGGTKVEIK = 0.85

Note: attention shifts to another entry.
Q: Bench note: what ELISA OD did anti-MS4A4A antibody 4A-312 (antibody, V domains shown, full human IgG) VH: QVQLVQSGAEVKKPGASVKVSCKASGYTFTNYWMQWVRQAPGQGLEWMGATHPGHGDTRYAQKFQGRVTMTRDTSTSTVYMELSSLRSEDTAVYYCAREEVDYGFRSYWYFDVWGRGTLVTVSS VL: EIVLTQSPATLSLSPGERATLSCRASESVDNYGVSFMNWYQQKPGQAPRLLIYGASNQQSGIPARFSGSGSGTDFTLTISSLEPEDFAVYYCQQSKEVPPTFGGGTKVEIK show?
Result: 0.11
